Values were extracted from ChEMBL document CHEMBL5724914.

- assay: The drug is tested on Z-003 corresponding to pig gut metagenome with ENA study accession number: PRJEB37062 and ENA sample accession number: ERS12561803 for biotransformation under anaerobic condition. The drug concentrations were measured over 9 timepoints collected between 0 and 24 hours of incubation by liquid-chromatography-coupled mass spectrometry (LC–MS); further: call rule not given here
- experimental.parameters: 2 µM
measured.endpoint: Bacterial Biotransformation

- CC(=O)O[C@H]1C(=O)[C@@]2(C)[C@H]([C@H](OC(=O)c3ccccc3)[C@]3(O)C[C@H](OC(=O)[C@H](O)[C@@H](NC(=O)c4ccccc4)c4ccccc4)C(C)=C1C3(C)C)[C@]1(OC(C)=O)CO[C@@H]1C[C@@H]2O: Compound metabolized
- CCCCCNC(=N)N/N=C/c1c[nH]c2ccc(OC)cc12.O=C(O)/C=C\C(=O)O [TEGASEROD MALEATE]: Compound NOT metabolized
- COC1=C(OC)C(=O)C(CCCCCCCCCCO)=C(C)C1=O: Compound metabolized
- COc1ccc(C(CN(C)C)C2(O)CCCCC2)cc1 (stereo not given): Compound NOT metabolized
- O=C1CCc2ccc(OCCCCN3CCN(c4cccc(Cl)c4Cl)CC3)cc2N1: Compound metabolized
- COc1cc2nc(N3CCN(C(=O)C4COc5ccccc5O4)CC3)nc(N)c2cc1OC.CS(=O)(=O)O (stereo not given) [DOXAZOSIN MESYLATE]: Compound NOT metabolized
- Nc1nc(N)nc(-c2cc(Cl)ccc2Cl)n1.O=C(O)/C=C\C(=O)O [IRSOGLADINE MALEATE]: Compound NOT metabolized
- O=C1CC2(CCCC2)CC(=O)N1CCCCN1CCN(c2ncccn2)CC1: Compound metabolized
- O=C(CCCN1CCC2(CC1)C(=O)NCN2c1ccccc1)c1ccc(F)cc1: Compound NOT metabolized
- C[C@@H](c1ncncc1F)[C@](O)(Cn1cncn1)c1ccc(F)cc1F: Compound metabolized
- CC(C)c1nc(N(C)S(C)(=O)=O)nc(-c2ccc(F)cc2)c1/C=C/[C@@H](O)C[C@@H](O)CC(=O)[O-].CC(C)c1nc(N(C)S(C)(=O)=O)nc(-c2ccc(F)cc2)c1/C=C/[C@@H](O)C[C@@H](O)CC(=O)[O-].[Ca+2]: Compound NOT metabolized
- COc1ccccc1OCCNCC(O)COc1cccc2[nH]c3ccccc3c12 (stereo not given): Compound NOT metabolized
- CN1CCC[C@@H]1CCO[C@](C)(c1ccccc1)c1ccc(Cl)cc1.O=C(O)/C=C/C(=O)O [CLEMASTINE FUMARATE]: Compound NOT metabolized
- CC(=O)SCC(Cc1ccccc1)C(=O)NCC(=O)OCc1ccccc1 (stereo not given): Compound metabolized
- c1ccc2[nH]c(-c3cscn3)nc2c1: Compound NOT metabolized

* * *

- assay: The drug is tested on WLS-069 corresponding to human gut metagenome with ENA study accession number: PRJEB37062 and ENA sample accession number: ERS12561748 for biotransformation under anaerobic condition. The drug concentrations were measured over 9 timepoints collected between 0 and 24 hours of incubation by liquid-chromatography-coupled mass spectrometry (LC–MS)
- experimental.parameters: 2 µM
measured.endpoint: Bacterial Biotransformation

* COc1ccc(C(CN(C)C)C2(O)CCCCC2)cc1 (configuration not stated) | Compound NOT metabolized
* CC(C)(C)N.CCC[C@H](N[C@@H](C)C(=O)N1[C@H](C(=O)O)C[C@@H]2CCCC[C@@H]21)C(=O)OCC | Compound metabolized
* CCOC(=O)C1=C[C@]2(CC)CCCN3CCc4c(n1c1ccccc41)[C@@H]32 | Compound metabolized
* CC(=O)OCC(CCn1cnc2cnc(N)nc21)COC(C)=O | Compound metabolized
* CN1CCC[C@@H]1CCO[C@](C)(c1ccccc1)c1ccc(Cl)cc1.O=C(O)/C=C/C(=O)O [CLEMASTINE FUMARATE] | Compound metabolized
* OCCN(CCO)c1nc(N2CCCCC2)c2nc(N(CCO)CCO)nc(N3CCCCC3)c2n1 | Compound metabolized
* CCOC(=O)C1=C(C)NC(C)=C(C(=O)OC)C1c1cccc([N+](=O)[O-])c1 (configuration not stated) | Compound metabolized
* CCCN(CCC)CCc1cccc2c1CC(=O)N2 | Compound NOT metabolized
* O=P1(N(CCCl)CCCl)NCCCO1 (configuration not stated) [CYCLOPHOSPHAMIDE ANHYDROUS] | Compound metabolized
* CN(CCOc1ccc(CC2SC(=O)NC2=O)cc1)c1ccccn1.O=C(O)/C=C\C(=O)O (configuration not stated) [ROSIGLITAZONE MALEATE] | Compound metabolized
* O=C1CN2Cc3c(ccc(Cl)c3Cl)N=C2N1 [ANAGRELIDE] | Compound metabolized
* CCN(CC)CCNC(=O)c1ccc(NC(C)=O)cc1 [ACECAINIDE] | Compound NOT metabolized
* CCCN1C[C@H](CSC)C[C@@H]2c3cccc4[nH]cc(c34)C[C@H]21.CS(=O)(=O)O [PERGOLIDE MESYLATE] | Compound NOT metabolized
* COc1ccc(/C=C/C(=O)Nc2ccccc2C(=O)O)cc1OC | Compound metabolized
* CC(C)C[C@H]1C(=O)N2CCC[C@H]2[C@]2(O)O[C@](NC(=O)[C@@H]3C=C4c5cccc6[nH]c(Br)c(c56)C[C@H]4N(C)C3)(C(C)C)C(=O)N12.CS(=O)(=O)O [BROMOCRIPTINE MESYLATE] | Compound metabolized
* COC1=C(OC)C(=O)C(CCCCCCCCCCO)=C(C)C1=O | Compound metabolized
* CC(N)C12CC3CC(CC(C3)C1)C2 (configuration not stated) | Compound NOT metabolized
* N=C(N)NC(=O)Cc1c(Cl)cccc1Cl | Compound NOT metabolized
* CN(C)CCC=C1c2ccccc2COc2ccccc21 [DOXEPIN] | Compound metabolized
* CC(C)c1nc(N(C)S(C)(=O)=O)nc(-c2ccc(F)cc2)c1/C=C/[C@@H](O)C[C@@H](O)CC(=O)[O-].CC(C)c1nc(N(C)S(C)(=O)=O)nc(-c2ccc(F)cc2)c1/C=C/[C@@H](O)C[C@@H](O)CC(=O)[O-].[Ca+2] | Compound metabolized
* CCCCCNC(=N)N/N=C/c1c[nH]c2ccc(OC)cc12.O=C(O)/C=C\C(=O)O [TEGASEROD MALEATE] | Compound metabolized
* CC(C)(C)NC(=O)[C@H]1CC[C@H]2[C@@H]3CC[C@H]4NC(=O)C=C[C@]4(C)[C@H]3CC[C@]12C [FINASTERIDE] | Compound metabolized
* CC(=O)OCC(=O)[C@@]1(OC(C)=O)[C@@H](C)C[C@H]2[C@@H]3C[C@H](F)C4=CC(=O)C=C[C@]4(C)[C@@]3(F)[C@@H](O)C[C@@]21C [DIFLORASONE DIACETATE] | Compound metabolized
* CCN(CC)CCOC(=O)C1(C2CCCCC2)CCCCC1 | Compound metabolized
* C=CC[C@@H]1/C=C(\C)C[C@H](C)C[C@H](OC)[C@H]2O[C@@](O)(C(=O)C(=O)N3CCCC[C@H]3C(=O)O[C@H](/C(C)=C/[C@@H]3CC[C@@H](O)[C@H](OC)C3)[C@H](C)[C@@H](O)CC1=O)[C@H](C)C[C@@H]2OC.O | Compound metabolized
* CCS(=O)(=O)CCn1c([N+](=O)[O-])cnc1C | Compound metabolized
* CN1CCN2c3ccccc3Cc3ccccc3C2C1 (configuration not stated) | Compound metabolized
* O=C(NC(Cc1cc(=O)[nH]c2ccccc12)C(=O)O)c1ccc(Cl)cc1 (configuration not stated) [REBAMIPIDE] | Compound NOT metabolized
* COCCCC/C(=N\OCCN)c1ccc(C(F)(F)F)cc1.O=C(O)/C=C\C(=O)O [FLUVOXAMINE MALEATE] | Compound NOT metabolized
* N#Cc1ccc2c(c1)N(CCCN1CCC(O)CC1)c1ccccc1S2 | Compound metabolized
* COc1cc(NC(C)CCCN)c2ncccc2c1.O=P(O)(O)O.O=P(O)(O)O (configuration not stated) [PRIMAQUINE PHOSPHATE] | Compound metabolized
* COc1ccc(Cc2nccc3cc(OC)c(OC)cc23)cc1OC | Compound metabolized
